# Test system: T1, IL-18 binding protein (IL-18BP) (UniProt O95998 31-194)
# T1 sequence (looked up): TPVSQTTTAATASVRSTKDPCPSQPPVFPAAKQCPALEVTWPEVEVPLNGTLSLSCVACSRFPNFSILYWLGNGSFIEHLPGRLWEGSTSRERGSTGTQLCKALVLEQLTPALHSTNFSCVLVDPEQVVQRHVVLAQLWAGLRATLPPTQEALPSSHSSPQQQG
# Experiment description: cell-based or functional assay
Assay metric: Ratio (-BP/+BP), DF-5000006

Binder: IL-18 variant G3L, E6Q, T63S, N91L, R104T (ligand) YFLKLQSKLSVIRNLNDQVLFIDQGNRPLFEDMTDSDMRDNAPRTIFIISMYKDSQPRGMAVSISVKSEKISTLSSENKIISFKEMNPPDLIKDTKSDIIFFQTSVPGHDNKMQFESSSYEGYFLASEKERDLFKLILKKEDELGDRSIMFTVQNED
Ratio (-BP/+BP), DF-5000006: 1.75

Binder: IL-18 variant G3Q, E6K, D54S, S55P, T63S, N91S, R104Q (ligand) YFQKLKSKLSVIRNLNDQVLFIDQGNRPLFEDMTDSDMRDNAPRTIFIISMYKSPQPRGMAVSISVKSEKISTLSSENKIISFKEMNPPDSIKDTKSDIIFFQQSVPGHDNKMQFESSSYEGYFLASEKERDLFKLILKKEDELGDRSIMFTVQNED
Ratio (-BP/+BP), DF-5000006: 1.67

Then this binder:
## Task Tell me the measured Ratio (-BP/+BP), DF-5000006 of IL-18 variant G3L, E6Q, D54Y, S55P, T63S, N91S, R104Q (ligand) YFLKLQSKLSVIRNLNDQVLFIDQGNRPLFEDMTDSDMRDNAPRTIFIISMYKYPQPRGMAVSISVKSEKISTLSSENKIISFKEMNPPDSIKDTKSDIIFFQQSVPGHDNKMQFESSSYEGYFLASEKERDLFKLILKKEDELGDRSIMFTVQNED , please.
## Result 4.67
